target: PRMT5 (Homo sapiens, UniProt O14744); construct: purchased Viva (custom protein); test: PRMT5 biochemical IC50 assay with SAM as cofactor; conditions: PRMT5, SAM as cofactor; read-out: SAM IC50
Sequence (O14744 whole entry): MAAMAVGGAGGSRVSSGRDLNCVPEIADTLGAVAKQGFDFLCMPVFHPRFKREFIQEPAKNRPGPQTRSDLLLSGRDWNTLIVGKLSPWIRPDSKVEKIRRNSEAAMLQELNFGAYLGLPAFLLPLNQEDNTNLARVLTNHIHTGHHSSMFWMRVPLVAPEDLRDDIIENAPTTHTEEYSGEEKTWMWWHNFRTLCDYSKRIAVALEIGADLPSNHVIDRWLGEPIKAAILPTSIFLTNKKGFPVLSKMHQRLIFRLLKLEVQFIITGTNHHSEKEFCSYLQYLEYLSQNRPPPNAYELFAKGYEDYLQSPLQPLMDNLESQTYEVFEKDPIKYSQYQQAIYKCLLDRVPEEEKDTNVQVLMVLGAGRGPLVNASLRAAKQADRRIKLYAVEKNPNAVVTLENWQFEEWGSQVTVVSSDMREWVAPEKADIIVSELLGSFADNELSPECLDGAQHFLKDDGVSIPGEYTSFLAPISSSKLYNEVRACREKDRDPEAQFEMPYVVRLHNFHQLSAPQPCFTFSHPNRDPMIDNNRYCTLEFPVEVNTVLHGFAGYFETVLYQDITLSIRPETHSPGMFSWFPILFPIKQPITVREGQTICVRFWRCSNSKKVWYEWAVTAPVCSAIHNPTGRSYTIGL
Sequence (Q9BQA1 whole entry partner): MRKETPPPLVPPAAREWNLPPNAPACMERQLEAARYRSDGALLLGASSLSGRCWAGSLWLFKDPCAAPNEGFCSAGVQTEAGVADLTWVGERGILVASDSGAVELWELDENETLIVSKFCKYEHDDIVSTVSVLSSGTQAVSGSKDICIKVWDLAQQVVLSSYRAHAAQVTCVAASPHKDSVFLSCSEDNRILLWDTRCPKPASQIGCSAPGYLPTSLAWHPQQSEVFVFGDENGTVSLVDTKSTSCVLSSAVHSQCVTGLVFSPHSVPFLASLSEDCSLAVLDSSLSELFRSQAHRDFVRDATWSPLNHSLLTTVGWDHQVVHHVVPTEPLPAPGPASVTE
Quantity name: IC50

Some solved cases for reference:
COc1cc(NC(=O)C(=O)N2C[C@@H](C)CC[C@@H]2c2ccc3sc(C4CCN(C)CC4)nc3c2)cnc1N [Compound 1203]; < 50 nM
CCc1cc(NC(=O)C(=O)N2C[C@@H](C)CC[C@@H]2c2ccc3sc(C)nc3c2)cnc1N (single isomer, unassigned) [Compound 800]; 50 to 500 nM
CNS(=O)(=O)c1ccc([C@@H]2CC[C@@H](C)CN2C(=O)C(=O)Nc2cncc(C(N)=O)c2)cc1 (single isomer, unassigned) [Compound 723]; > 500 nM
Cc1cnc(N)c(NC(=O)C(=O)N2CCCCC2c2ccccc2)c1 (stereo not shown) [Compound 160]; > 500 nM
Cc1cc(NC(=O)C(=O)N2C[C@@H](C)CC[C@@H]2c2cc3cn[nH]c3s2)cnc1N (single isomer, unassigned) [Compound 1392]; 50 to 500 nM

Would you mind listing IC50 for each of the following molecules?
1. C[C@H]1CC[C@H](c2ccc(F)cc2)N(C(=O)C(=O)Nc2cnc(N)c(C3CC3)c2)C1 [Compound 989]
2. C[C@H]1CN(C(=O)C(=O)Nc2cncc(C(N)=O)c2)[C@H](c2ccc(F)cc2)CC1(F)F (single isomer, unassigned) [Compound 731]
3. COc1ncc(NC(=O)C(=O)N2C[C@H](C)CC[C@H]2c2ccc(N)nc2)cc1C(N)=O (single isomer, unassigned) [Compound 471]
4. C[C@H]1CC[C@H](c2ccc(-c3cc[nH]n3)cc2)N(C(=O)C(=O)Nc2cncc(C(N)=O)c2)C1 (single isomer, unassigned) [Compound 626]

-- reply
1: 50 to 500 nM; 2: 50 to 500 nM; 3: > 500 nM; 4: 50 to 500 nM
